# Test system: RAW-Dual (murine macrophage reporter line)
# assay_notes: IRF reporter (Lucia luciferase) activity fold change vs agonist alone; higher = enhanced IRF activity
# experimental_parameters: modulator concentration 10 µM; agonist: 3'3'-cGAMP 10 ug/mL
molecules and their reported IRF reporter

>>> result("CCC(=O)Nc1cccc(NC(=O)c2ccc(F)cc2)c1")
0.99
>>> result("COc1ccc(-c2cc(C(F)(F)F)n3nc(C(=O)Nc4cc(OC)c(OC)c(OC)c4)c(Cl)c3n2)cc1OC")
0.566

Find IRF reporter (RAW-Dual (murine macrophage reporter line)) for the entry `CN1CCN(C2=Nc3ccccc3Oc3ccc(Cl)cc32)CC1.O=C(O)CCC(=O)O`
0.548

Find IRF reporter (RAW-Dual (murine macrophage reporter line)) for the entry `O=C(CSC1CCCCC1)Nc1ccc(Br)cc1`
0.671

Find IRF reporter (RAW-Dual (murine macrophage reporter line)) for the entry O=C(C=Cc1ccccc1)NC(NC(=S)Nc1cccc2cccnc12)C(Cl)(Cl)Cl (centres undefined)
0.452

Find IRF reporter (RAW-Dual (murine macrophage reporter line)) for the entry `N#Cc1nc(-c2ccc(COc3ccc(Cl)cc3)o2)oc1N1CCCCC1`
1.21

Find IRF reporter (RAW-Dual (murine macrophage reporter line)) for the entry `CCOc1ccccc1OCCCCOc1cccc(Br)c1`
1.19

Find IRF reporter (RAW-Dual (murine macrophage reporter line)) for the entry `COC(=O)N[C@H](C(=O)N1CCC[C@H]1c1ncc(-c2ccc(-c3ccc(-c4cnc([C@@H]5CCCN5C(=O)[C@@H](NC(=O)OC)C(C)C)[nH]4)cc3)cc2)[nH]1)C(C)C`
0.757

Find IRF reporter (RAW-Dual (murine macrophage reporter line)) for the entry CC1CCN(C2CC(=O)N(c3ccc(S(=O)(=O)N4CCOCC4)cc3)C2=O)CC1 (centres undefined)
1.02

###

# Tested on: RAW-Dual (murine macrophage reporter line)
# assay_notes: IRF reporter (Lucia luciferase) activity fold change vs agonist alone; higher = enhanced IRF activity
# experimental_parameters: modulator concentration 10 µM; agonist: 3'3'-cGAMP 10 ug/mL
molecules and their reported IRF reporter
Answer using only a numeral; do not append any unit.

>>> recorded_number("O=S(=O)(Cc1ccccc1)Nc1ccccn1")
0.961
>>> recorded_number("O=C(O)C=Cc1ccc(S(=O)(=O)NCc2cccnc2)cc1")
1.02

Endpoint output: IRF reporter of `COc1ccc2oc(=O)c(-c3csc(NC(=O)C=CC(=O)O)n3)cc2c1` . Value?
0.353

Endpoint output: IRF reporter of `Cc1ccc(OCCCOc2cccc3cccnc23)c(Cl)c1` . Value?
0.947

###

# Test system: RAW-Dual (murine macrophage reporter line)
# assay_notes: IRF reporter (Lucia luciferase) activity fold change vs agonist alone; higher = enhanced IRF activity
# experimental_parameters: modulator concentration 10 µM; agonist: 3'3'-cGAMP 10 ug/mL
compounds and their reported IRF reporter
Answer using only a numeral; do not append any unit.

>>> recorded_number("CC(=NNC(=O)CSc1nc2ccccc2n1Cc1ccccc1)c1ccc(Br)cc1")
0.942
>>> recorded_number("COc1ccc(N2CC(C(=O)NCc3ccccc3C(F)(F)F)CC2=O)cc1 (stereo unspecified)")
1.03
>>> recorded_number("COCCCC/C(=N\\OCCN)c1ccc(C(F)(F)F)cc1.O=C(O)/C=C\\C(=O)O")
0.829
>>> recorded_number("Cc1nc2ccc(CN(C)c3ccc(C(=O)N[C@@H](CCC(=O)O)C(=O)O)s3)cc2c(=O)[nH]1")
0.863
>>> recorded_number("CCCCSc1nnc2c(n1)OC(c1cccc(O)c1)Nc1ccc(Br)cc1-2 (stereo unspecified)")
0.644

Endpoint output: IRF reporter of `COc1ccc(S(=O)(=O)N(CC(=O)Nc2ccccc2F)c2ccc(C)cc2)cc1OC` . Value?
0.979

Endpoint output: IRF reporter of `Nc1ncnc2c1ncn2[C@@H]1O[C@H](CO)[C@@H](O)[C@@H]1O` . Value?
0.953
